Biological target: SmAP2 (Sulfolobus solfataricus, UniProt Q980S8 1-87)
Assay: MST
MEASURED_PROPERTY: Kd (µM)
Lab book: enter the figure in µM, no units written.

BINDER	MEASURED_PROPERTY	VAL
GGAUGGAUAUUAGGUACUGGG (ssRNA) [1742-RBM]	Kd	0.0059

Consider the additional binder presented here.
-- ask # lookup: Kd of GGAGAUAUAGUAGGAUAG (ssRNA) [2194-RBM]
-- reply 0.0144

The values you see were collected from paper PMC5587771.
